Reference source for all entries: ChEMBL document CHEMBL3301555

test system: Plasmodium falciparum; experiment: MMV: Measure of pLDH activity as indication of parasite viability. Gametocytogenesis of 3D7 Plasmodium falciparum strain was induced in vitro and asexual parasites were depleted with N-acetylglucosamine. Gametocytes were treated with dihydroartemisinin, epoxomicin, methylene blue, primaquine, puromycin or chloroquine in 96-well plates and the pLDH activity was evaluated using a modified Makler protocol. Mosquito infectivity was measured by the standard membrane feeding assay.; format: functional; design: concentration or dose not given beside the values
Field: Growth Inhibition. Provide a value for each of the compounds that follow.
Please reply with the bare figure in % and do not write the unit itself.

**Q:** In one line, give reported Growth Inhibition of the entry COc1ccc(C2NCCc3c2[nH]c2ccccc32)cc1CN1CCN(c2ccc(F)cc2)CC1.Cl (stereo unspecified) .
**A:** 75.07

**Q:** In one line, give reported Growth Inhibition of the entry O=C(NCCCN1CCC(N2CCCCC2)CC1)C1=Cc2cc(Br)ccc2OC1 .
**A:** 57.2548

**Q:** In one line, give reported Growth Inhibition of the entry O=C(CCl)NCCOc1ccc(Cl)cc1Cl .
**A:** 8.2288

**Q:** In one line, give reported Growth Inhibition of the entry CCCCc1c(C)nc2c(OC)cccc2c1O .
**A:** 10.7044

**Q:** In one line, give reported Growth Inhibition of the entry CCOC(=O)C1=CN(C)C=C(C(=O)OCC)C1c1cc(Br)c(OCC)c(OC)c1 .
**A:** 20.4206

**Q:** In one line, give reported Growth Inhibition of the entry c1ccc2cc3c(Nc4ccc(N5CCOCC5)cc4)ccnc3cc2c1 .
**A:** 12.7974

**Q:** In one line, give reported Growth Inhibition of the entry COc1cc(-c2nc(-c3ccccc3)c(-c3ccccc3)[nH]2)cc(OC)c1O .
**A:** 13.9122

**Q:** In one line, give reported Growth Inhibition of the entry CCOc1ccc(CCNC(=O)c2cccs2)cc1OCC .
**A:** 6.4232

**Q:** In one line, give reported Growth Inhibition of the entry COc1ccc(C(=O)NC(c2ccc(Cl)cc2Cl)c2cc(Cl)c3cccnc3c2O)cc1 (stereo unspecified) .
**A:** 50.4754

**Q:** In one line, give reported Growth Inhibition of the entry CSc1ccccc1C(=O)Nc1nc(-c2ccccn2)cs1 .
**A:** 29.8315

**Q:** In one line, give reported Growth Inhibition of the entry CCCc1cc(O)c2c3c(c(=O)oc2c1)CN(C)CC3 .
**A:** 31.2868
